Source of measurements: ChEMBL document CHEMBL5058577

Entries and their measured Population Apoptotic (%) follow.
System: Fibroblast
Assay: Multiplex assay against human fibroblast
Assay type: toxicity, cell-based
Settings: 48 h, 1 µM, compound concentration 1 uM, replicate 2

- COc1cc(NC(=O)CCN2CCC(OC(=O)Nc3ccccc3-c3ccccc3)CC2)c(Cl)cc1CNC[C@H](O)c1ccc(O)c2[nH]c(=O)ccc12: 66%
- CCNC1(C(N)=O)CCN(c2ncnc3c2nc(-c2ccccc2Cl)n3-c2ccc(Cl)cc2)CC1: 59%
- Oc1c(CN2CCN(c3ccccn3)CC2)cc(Cl)c2cccnc12: 70%

In the following, a different compound is considered.
## Input For Cc1ccc(/C(=C\CN2CCCC2)c2ccccn2)cc1 , what is its reported Population Apoptotic (%)?
## Output 52%
